# Test system: Ruminococcus gnavus DSM 108212
# assay_procedure: fold change of Tryptamine concentration vs plate DMSO controls (fold change (ratio)); higher = more amine produced, active = hit call of the paper (significant change in both replicates, either direction);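 for the amine columns active = adjusted P below 0.05 in both replicates with a change the same way and a mean fold change under 0.8 or over 1.25; inactive = the rest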
# condition_set: incubation time: 27 h, anaerobic, 37 °C
Counter-ions that a name gives are not always drawn.
Your answer must be one of the following: YES = active, NO = inactive

IN: What outcome does the record of this test show for COc1ccc([C@@H]2CC(=O)c3c(O)cc(O[C@@H]4O[C@H](CO[C@@H]5O[C@@H](C)[C@H](O)[C@@H](O)[C@H]5O)[C@@H](O)[C@H](O)[C@H]4O)cc3O2)cc1O [Hesperidin] (20 µM) ?
OUT: NO

IN: Tell me the recorded outcome of this test for CN(C)CCOC(c1ccccc1)c1ccccc1 [Diphenhydramine hydrochloride] (20 µM) .
OUT: NO

IN: Would you mind telling me which call this test gave Cc1c(O)c(=O)ccn1C [Deferiprone] (20 µM) ?
OUT: NO

IN: I'd appreciate the recorded outcome for CC1(C)S[C@@H]2[C@H](NC(=O)[C@H](N)c3ccccc3)C(=O)N2[C@H]1C(=O)OC1OC(=O)c2ccccc21 (some centres not stated) [Talampicillin hydrochloride] (20 µM) from this test.
OUT: YES

IN: Record lookup: outcome of this test for Oc1c(Cl)cc(Cl)cc1Sc1cc(Cl)cc(Cl)c1O [Bithionol] (20 µM) ?
OUT: YES

IN: # outcome recorded in this test, key = CO[C@@H]1[C@@H](OC(N)=O)[C@@H](O)[C@H](Oc2ccc3c(O)c(NC(=O)c4ccc(O)c(CC=C(C)C)c4)c(=O)oc3c2C)OC1(C)C [Novobiocin sodium salt] (20 µM)
OUT: YES

IN: How was CCN(CC)CCNC(C(=O)OCCC(C)C)c1ccccc1 (configuration not stated) [Camylofine chlorhydrate] (20 µM) classified in this test?
OUT: NO
